Every entry's value here was drawn from paper PMC4208696.

- system-tested: CaM1–148 (full-length calmodulin) (Homo sapiens)
- Format: binding, mammalian
observation-type: Kd

Identify measured Kd obtained with CaM1–148 (full-length calmodulin) (Homo sapiens) for Ac-KSKKAVWHKLLSKQRRRAVVACFRMTPLYN-NH2 [hRyR1(3614–3643)p] .
≤ 1 nM

----------
- system-tested: CaM76–148 (CaM C-domain) (Homo sapiens, UniProt P0DP23)
- Format: binding, mammalian
observation-type: Kd

Answer with the recorded Kd of Ac-KSKKAVWHKLLSKQRRRAVVACFRMTPLYN-NH2 [hRyR1(3614–3643)p] only.
≤ 10 nM
